Molecular target: Human α2δ-1 Subunit of Cav2.2 Calcium Channel (Homo sapiens, UniProt P54289)
Sequence (P54289 25-1103): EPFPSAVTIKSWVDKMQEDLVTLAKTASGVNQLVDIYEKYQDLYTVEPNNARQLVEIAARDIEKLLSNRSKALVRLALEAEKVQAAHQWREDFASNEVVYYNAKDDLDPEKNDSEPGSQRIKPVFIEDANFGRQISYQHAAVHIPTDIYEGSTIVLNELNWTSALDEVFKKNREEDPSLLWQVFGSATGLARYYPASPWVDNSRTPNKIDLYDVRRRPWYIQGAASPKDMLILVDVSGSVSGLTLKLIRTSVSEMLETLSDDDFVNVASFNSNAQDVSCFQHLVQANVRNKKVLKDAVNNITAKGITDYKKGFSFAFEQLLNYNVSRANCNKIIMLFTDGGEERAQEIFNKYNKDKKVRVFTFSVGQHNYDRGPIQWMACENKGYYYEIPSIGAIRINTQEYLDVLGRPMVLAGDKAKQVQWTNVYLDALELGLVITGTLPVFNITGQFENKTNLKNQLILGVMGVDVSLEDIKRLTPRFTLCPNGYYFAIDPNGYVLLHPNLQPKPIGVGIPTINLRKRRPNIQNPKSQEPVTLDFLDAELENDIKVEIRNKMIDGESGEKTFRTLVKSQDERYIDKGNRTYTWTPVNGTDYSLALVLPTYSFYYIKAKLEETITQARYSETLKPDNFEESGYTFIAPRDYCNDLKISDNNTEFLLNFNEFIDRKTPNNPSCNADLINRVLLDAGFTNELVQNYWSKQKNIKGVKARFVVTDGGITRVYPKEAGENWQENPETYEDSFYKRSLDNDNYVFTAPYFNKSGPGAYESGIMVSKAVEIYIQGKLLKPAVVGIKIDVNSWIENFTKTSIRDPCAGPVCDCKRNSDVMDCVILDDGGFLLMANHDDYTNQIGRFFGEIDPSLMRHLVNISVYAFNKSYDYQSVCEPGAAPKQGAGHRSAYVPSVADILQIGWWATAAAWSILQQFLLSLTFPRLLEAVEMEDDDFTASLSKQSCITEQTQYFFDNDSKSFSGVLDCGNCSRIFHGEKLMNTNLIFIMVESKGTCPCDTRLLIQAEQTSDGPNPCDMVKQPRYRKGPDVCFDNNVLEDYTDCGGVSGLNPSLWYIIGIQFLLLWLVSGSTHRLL
Assay: Binding assay to human α2δ-1 subunit of Cav2.2 calcium channel ([3H]-Gabapentin)
Conditions: Table 1; human α2δ-1 enriched membranes, 15 nM [3H]-Gabapentin; read-out: Ki(nM) alpha2delta Hum
Parameter: Ki

Compound	Parameter	Data value
CNCCC(Oc1cccc(C(=O)N(C)c2ccccc2)c1)c1ccccc1 (centres unmarked)	Ki	≥ 3000 nM
CNCCC(Oc1cccc(CN(C)C)c1)c1cccs1 (centres unmarked)	Ki	100 to 500 nM
CNCCC(OCc1cccc(N(C)C(=O)c2ccccn2)c1)c1ccccc1 (centres unmarked)	Ki	≥ 3000 nM
CNCCC(Oc1cccc(C(=O)Nc2cccc(-c3nnc(C)o3)c2)c1)c1cccs1 (centres unmarked)	Ki	500 to 3000 nM
CNCCC(Oc1cccc(C(=O)Nc2cccc(-c3nnc(C)o3)c2)c1)c1ccccc1 (centres unmarked)	Ki	≥ 3000 nM
